Reference source for all entries: ChEMBL document CHEMBL1148795

Molecular target: Human immunodeficiency virus type 1 reverse transcriptase (Human immunodeficiency virus 1, UniProt Q72547)
Reported pIC50 values for a set of molecules
Scale for pIC50: -log10 of concentration given in mol/L; no unit attached.

1) COC(=O)CCC/C=C(\c1cc(C)c(OC)c(C(=O)OC)c1)c1cc(C)c2onc(OC)c2c1: 6.04
2) COC(=O)c1cc(C(=CCCc2nnc(C)o2)c2cc(C)c(OC)c(C(=O)OC)c2)cc(C)c1OC: 4.15
3) COc1c(C)cc(/C(=C\CCCc2nnc(C)o2)c2cc(C)c3onc(OC)c3c2)cc1C(=O)SC: 6.33
4) COc1c(C)cc(/C(=C/CCc2nnc(C)o2)c2cc(C)c3onc(OC)c3c2)cc1C(=O)SC: 4.48
5) COC(=O)c1cc(C(=CCCc2nnn(C)n2)c2cc(C)c(OC)c(C(=O)SC)c2)cc(C)c1OC: 4.02

Lookup: Suppose we examine the molecule `COc1c(C)cc(/C(=C\CCCc2nnc(C)o2)c2ccc(C#N)cc2)cc1C(=O)SC` ; what pIC50 value has been reported?
Found: 5.49

Lookup: Next record, please: `COc1c(C)cc(/C(=C\CCc2nnc(C)o2)c2ccc3oncc3c2)cc1C(=O)SC`
Found: 5.11

Lookup: Then what about the molecule `COc1c(C)cc(/C(=C/CCc2nnc(C)o2)c2ccc(C#N)cc2)cc1C(=O)SC` ?
Found: 4.32

====

Below is a list of entries, each paired with its recorded CC50 value.
Assay: Cytotoxicity against human MT4 cells by MTT assay
Type: cell-based
Numbers only; they are read as µM.

1) COC(=O)CCCC=C(c1cc(Cl)c(OC)c(C(=O)OC)c1)c1cc(Cl)c(OC)c(C(=O)OC)c1: 160
2) COc1c(C)cc(/C(=C\CCCc2nnc(C)o2)c2ccc(C#N)cc2)cc1C(=O)SC: 36
3) COc1c(C)cc(/C(=C/CCCc2nnc(C)o2)c2cccc(C#N)c2)cc1C(=O)SC: 8.2

# next compound below
Lookup: # CC50 lookup, item `COC(=O)c1cc(/C(=C\CCc2nnn(C)n2)c2cccc(C#N)c2)cc(C)c1OC`
Found: 34

====

Entries with reported IC50 on Human immunodeficiency virus type 1 reverse transcriptase (Human immunodeficiency virus 1)
The answer is to be given in µM; state only the numeric part.

1) COC(=O)c1cc(/C(=C\CCc2nnc(C)o2)c2cccc(C#N)c2)cc(C)c1OC: 29
2) COc1c(C)cc(C(=CCCc2nnn(C)n2)c2cc(C)c(OC)c(C(=O)SC)c2)cc1C(=O)SC: 67
3) COc1c(C)cc(/C(=C/CCCc2nnc(C)o2)c2cccc(C#N)c2)cc1C(=O)SC: 7.7
4) COC(=O)c1cc(/C(=C/CCc2nnc(C)o2)c2cc(C)c3oc(=O)n(C)c3c2)cc(C)c1OC: 1
5) COc1c(C)cc(/C(=C\CCc2nnc(C)o2)c2cc(C)c3on(C)c(=O)c3c2)cc1C(=O)SC: 9.2

Lookup: Entry under review: `COc1c(C)cc(/C(=C/CCc2nnc(C)o2)c2ccc3oc(=O)n(C)c3c2)cc1C(=O)SC` . Reported IC50?
Found: 2.6

Lookup: Try this molecule next: `COc1c(C)cc(/C(=C/CCc2nnc(C)o2)c2cc(C)c3oc(=O)n(C)c3c2)cc1C(=O)SC`
Found: 90

Lookup: Now consider `COc1c(C)cc(/C(=C\CCc2nnc(C)o2)c2cccc(C#N)c2)cc1C(=O)SC` and answer again.
Found: 9.3

Lookup: Thanks! And `COC(=O)c1cc(/C(=C\CCc2nnc(C)o2)c2cc(C)c3onc(OC)c3c2)cc(C)c1OC` ?
Found: 0.39
